test system: wheat (Wh); assay: Test Example 3: phytotoxicity to upland crop plants, treatment before emergence; format: in vivo; settings: dosage 5 kg/ha
Collected Phytotoxicity Wh values appear next to each entry.
ASSAY_READOUT: Phytotoxicity Wh

[
  {
    "STRUCTURE_SMILES_STRING": "CCCNC(=O)c1nc2ccc(O)cc2cc1C(=O)Nc1c(CC)ccc(Cl)c1CC",
    "RESULT": "2 (Crop-killing rate is 40-69%.)"
  },
  {
    "STRUCTURE_SMILES_STRING": "CCCNC(=O)c1nc2c(cc1C(=O)Nc1cccc(Cl)c1C)OCCC2",
    "RESULT": "4 (Crop-killing rate is 90-99%.)"
  },
  {
    "STRUCTURE_SMILES_STRING": "CCc1ccc(Cl)c(CC)c1NC(=O)c1nc2ccccc2nc1C(=O)NC1CCCC1",
    "RESULT": "5 (Crop-killing rate is 100%.)"
  },
  {
    "STRUCTURE_SMILES_STRING": "CCCNC(=O)c1nc2scc(Br)c2cc1C(=O)Nc1c(CC)ccc(Cl)c1CC",
    "RESULT": "4 (Crop-killing rate is 90-99%.)"
  },
  {
    "STRUCTURE_SMILES_STRING": "CCCNC(=O)c1nc2ncccc2cc1C(=O)Nc1cccc(Cl)c1C",
    "RESULT": "3 (Crop-killing rate is 70-89%.)"
  }
]

----------
Each entry below carries its reported Phytotoxicity So.
Test system: soybean plant (So)
Assay: Test Example 3: phytotoxicity to upland crop plants, treatment before emergence
Format: in vivo
Details: dosage 5 kg/ha
Method: Herbicidal Effect on Upland Weeds Before Emergence […] Then, a liquid preparation of an agent comprising a prescribed concentration of a compound of the present invention (the compounds listed in Tables 1-14) as active ingredient was sprayed. Fourteen days after the treatment, the herbicidal effect was investigated, from which weed-killing rate was calculated in the same manner as in Test Example 1, and the herbicidal effect was judged. […]
ASSAY_READOUT: Phytotoxicity So

[
  {
    "COMPOUND": "CCCNC(=O)c1nc2onc(C)c2cc1C(=O)Nc1c(CC)ccc(Cl)c1CC [compound 1064]",
    "ASSAY_READOUT": "Phytotoxicity So",
    "RESULT": "4 (Crop-killing rate is 90-99%.)"
  },
  {
    "COMPOUND": "Cc1c(Cl)cccc1NC(=O)c1nc2ccccc2nc1C(=O)NC1CCCC1 [compound 1327]",
    "ASSAY_READOUT": "Phytotoxicity So",
    "RESULT": "3 (Crop-killing rate is 70-89%.)"
  },
  {
    "COMPOUND": "CCCNC(=O)c1cc2c(nc1C(=O)Nc1c(CC)ccc(Cl)c1CC)S(=O)(=O)CC2 [Compound No. 1040]",
    "ASSAY_READOUT": "Phytotoxicity So",
    "RESULT": "4 (Crop-killing rate is 90-99%.)"
  },
  {
    "COMPOUND": "CCCNC(=O)c1nc2ccsc2cc1C(=O)Nc1c(CC)ccc(Cl)c1CC [compound 871]",
    "ASSAY_READOUT": "Phytotoxicity So",
    "RESULT": "4 (Crop-killing rate is 90-99%.)"
  },
  {
    "COMPOUND": "CCCNC(=O)c1nc2scc(Br)c2cc1C(=O)Nc1c(CC)ccc(Cl)c1CC [compound 814]",
    "ASSAY_READOUT": "Phytotoxicity So",
    "RESULT": "3 (Crop-killing rate is 70-89%.)"
  },
  {
    "COMPOUND": "CCCNC(=O)c1cc2c(nc1C(=O)Nc1c(CC)ccc(Cl)c1CC)[S+]([O-])CC2 (stereo not drawn) [Compound No. 1028]",
    "ASSAY_READOUT": "Phytotoxicity So",
    "RESULT": "4 (Crop-killing rate is 90-99%.)"
  },
  {
    "COMPOUND": "CCCNC(=O)c1nc2cc(F)ccc2cc1C(=O)Nc1c(CC)ccc(Cl)c1CC [Compound No. 158]",
    "ASSAY_READOUT": "Phytotoxicity So",
    "RESULT": "1 (Crop-killing rate is 1-39%.)"
  },
  {
    "COMPOUND": "CCCNC(=O)c1nc2ocnc2cc1C(=O)Nc1c(CC)ccc(Cl)c1CC [compound 1245]",
    "ASSAY_READOUT": "Phytotoxicity So",
    "RESULT": "5 (Crop-killing rate is 100%.)"
  },
  {
    "COMPOUND": "CCCNC(=O)c1nc2c(ccn2C)cc1C(=O)Nc1c(CC)ccc(Cl)c1CC [compound 824]",
    "ASSAY_READOUT": "Phytotoxicity So",
    "RESULT": "5 (Crop-killing rate is 100%.)"
  },
  {
    "COMPOUND": "Cc1c(Cl)cccc1NC(=O)c1cc2c(C)noc2nc1C(=O)NC1CCCC1 [compound 1085]",
    "ASSAY_READOUT": "Phytotoxicity So",
    "RESULT": "4 (Crop-killing rate is 90-99%.)"
  },
  {
    "COMPOUND": "CCNC(=O)c1nc2ccc(OC)cc2cc1C(=O)Nc1c(CC)ccc(Cl)c1CC [compound 289]",
    "ASSAY_READOUT": "Phytotoxicity So",
    "RESULT": "1 (Crop-killing rate is 1-39%.)"
  },
  {
    "COMPOUND": "CCCNC(=O)c1nc2occc2cc1C(=O)Nc1c(CC)ccc(Cl)c1CC [compound 775]",
    "ASSAY_READOUT": "Phytotoxicity So",
    "RESULT": "5 (Crop-killing rate is 100%.)"
  },
  {
    "COMPOUND": "CCCNC(=O)c1nc2c(cc1C(=O)Nc1c(CC)ccc(Cl)c1CC)c(C)nn2C [compound 1112]",
    "ASSAY_READOUT": "Phytotoxicity So",
    "RESULT": "5 (Crop-killing rate is 100%.)"
  },
  {
    "COMPOUND": "CCc1ccc(Cl)c(CC)c1NC(=O)c1cc2c(nc1C(=O)NC1CCCC1)OCCC2 [compound 423]",
    "ASSAY_READOUT": "Phytotoxicity So",
    "RESULT": "4 (Crop-killing rate is 90-99%.)"
  },
  {
    "COMPOUND": "CCCNC(=O)c1nc2ccccc2nc1C(=O)Nc1c(CC)ccc(Cl)c1CC [compound 1306]",
    "ASSAY_READOUT": "Phytotoxicity So",
    "RESULT": "5 (Crop-killing rate is 100%.)"
  },
  {
    "COMPOUND": "CCCNC(=O)c1nc2ccn(C)c2cc1C(=O)Nc1c(CC)ccc(Cl)c1CC [compound 907]",
    "ASSAY_READOUT": "Phytotoxicity So",
    "RESULT": "4 (Crop-killing rate is 90-99%.)"
  },
  {
    "COMPOUND": "CCCNC(=O)c1nc2ccn(OC)c2cc1C(=O)Nc1c(CC)ccc(Cl)c1CC [compound 895]",
    "ASSAY_READOUT": "Phytotoxicity So",
    "RESULT": "4 (Crop-killing rate is 90-99%.)"
  }
]

----------
System: wheat (Wh)
Test: Test Example 3: phytotoxicity to upland crop plants, treatment before emergence
Assay type: in vivo
Details: dosage 5 kg/ha
Experimental: Herbicidal Effect on Upland Weeds Before Emergence […] Then, a liquid preparation of an agent comprising a prescribed concentration of a compound of the present invention (the compounds listed in Tables 1-14) as active ingredient was sprayed. Fourteen days after the treatment, the herbicidal effect was investigated, from which weed-killing rate was calculated in the same manner as in Test Example 1, and the herbicidal effect was judged. […]
Phytotoxicity Wh values for the compounds below.

[
  {
    "COMPOUND": "CCNC(=O)c1nc2sccc2cc1C(=O)Nc1c(CC)ccc(Cl)c1CC [compound 798]",
    "Phytotoxicity Wh": "5 (Crop-killing rate is 100%.)"
  },
  {
    "COMPOUND": "CCCNC(=O)c1nc2c(cc1C(=O)Nc1c(CC)ccc(Cl)c1CC)CCSC2 [compound 534]",
    "Phytotoxicity Wh": "4 (Crop-killing rate is 90-99%.)"
  },
  {
    "COMPOUND": "CCc1ccc(Cl)c(CC)c1NC(=O)c1nc2ccccc2nc1C(=O)NCC(C)(C)C [compound 1314]",
    "Phytotoxicity Wh": "4 (Crop-killing rate is 90-99%.)"
  },
  {
    "COMPOUND": "CCCNC(=O)c1nc2c(cc1C(=O)Nc1cccc(Cl)c1C)COCC2 [compound 474]",
    "Phytotoxicity Wh": "4 (Crop-killing rate is 90-99%.)"
  }
]

Reference for the values: patent US6444617B1
